system: MDA-MB-231; assay: Antiproliferative activity against human MDA-MB-231 cells assessed as reduction in cell growth incubated for 72 hrs by MTT assay; settings: MDA-MB-231, 72 h
measured-attribute: pIC50
Lab note — pIC50 values are minus log10 of concentrations in M.

Some molecules with known pIC50 results, for comparison:
[
  {
    "molecule": "CC(c1ccc2ncccc2c1)n1nnc2ncc(N3CCN(Cc4ccc(C(=O)Nc5ccc(F)cc5N)cc4)CC3)nc21 (stereo unspecified)",
    "pIC50": 5.23
  },
  {
    "molecule": "Nc1cc(F)ccc1NC(=O)c1ccc(CNC(=O)/C=C/c2cccnc2)cc1",
    "pIC50": 5.76
  },
  {
    "molecule": "CC(c1ccc2ncccc2c1)n1nnc2ncc(N3CCN(Cc4ccc(/C=C/C(=O)Nc5ccc(F)cc5N)cc4)CC3)nc21 (stereo unspecified)",
    "pIC50": 5.79
  }
]

Exercise: Request the reported pIC50 associated with CC(c1ccc2ncccc2c1)n1nnc2ncc(N3CCN(Cc4ccc(CC(=O)Nc5ccc(F)cc5N)cc4)CC3)nc21 (stereo unspecified)
Solution: 5.19

Exercise: Same question, CC(c1ccc2ncccc2c1)n1nnc2ncc(N3CCN(CC(=O)Nc4ccc(F)cc4N)CC3)nc21 (stereo unspecified) this time
Solution: 4.73

Exercise: Same question, CC(c1ccc2ncccc2c1)n1nnc2ncc(N3CCN(CC(=O)Nc4ccccc4N)CC3)nc21 (stereo unspecified) this time
Solution: 4.58
